Quick record of IC50 values for mTOR (h) (Homo sapiens, UniProt P42345).
measurement_label: IC50 (nM)

(1) COc1ncc(-c2ccc3ncc(C#N)n3n2)cc1NS(=O)(=O)c1ccc(F)cc1F
(2) C#Cc1cnc2ccc(-c3cnc(OC)c(NS(=O)(=O)c4ccc(F)cc4F)c3)nn12
Between 1 and 2 , whose measured IC50 reads higher? Your choice should be expressed through its label.
2
(2: 12 nM, 1: 3 nM)

---

run_description: Pharmacokinetic profiles in rats after intravenous and oral administration
Format: in vivo
assay_conditions: iv dosing 1 mg/kg
Experimental: The compounds disclosed herein are assessed in pharmacokinetic studies in mice, rats, dogs or monkeys. The compounds are administered as a water solution, 2% HPMC+1% TWEEN® 80 in water solution, 5% DMSO+5% solutol in saline, 4% MC suspension or capsule. For the intravenous administration, the animals are generally given at 1 or 2 mg/kg dose. […] The plasma solutions are collected, stored at −20° C. or −70° C. until analyzed by LC/MS/MS as described above.
measurement_label: Cl/F (L/h/kg)

Recorded Cl/F, per entry:
INSERT INTO assay_data (compound, quantitative_result) VALUES
  ('COc1ncc(-c2ccc3ncc(C#CCO)n3n2)cc1NS(=O)(=O)c1ccc(F)cc1F', 0.14),
  ('CC#Cc1cnc2ccc(-c3cnc(OC)c(NS(=O)(=O)c4ccc(F)cc4F)c3)cn12', 0.10),
  ('COc1ncc(-c2ccc3nnc(C#CC(C)O)n3c2)cc1NS(=O)(=O)c1ccc(F)cc1F (stereo not shown)', 1.81),
  ('CC#Cc1cnc2ccc(-c3cnc(OC)c(NS(=O)(=O)c4ccc(F)cc4)c3)nn12', 0.37);

(a) COc1ncc(-c2ccc3ncc(C#CC(C)(C)O)n3c2)cc1NS(=O)(=O)c1ccc(F)cc1F
(b) COc1ncc(-c2ccc3ncc(C#CC(C)(C)O)n3n2)cc1NS(=O)(=O)c1ccc(F)cc1F
Between a and b , whose measured Cl/F reads higher? Your choice should be expressed through its label.
a

(I) CC#Cc1cnc2ccc(-c3cnc(OC)c(NS(=O)(=O)c4ccc(F)cc4F)c3)nn12
(II) COc1ncc(-c2ccc3ncc(C#N)n3n2)cc1NS(=O)(=O)c1ccc(F)cc1
Between I and II , whose measured Cl/F reads higher? Your choice should be expressed through its label.
II

---

run_description: Pharmacokinetic profiles in rats after intravenous and oral administration
Type: in vivo
assay_conditions: rat, plasma, iv dosing 2 mg/kg, read-out: Vss
measurement_label: Vd (L/kg)

Recorded Vd, per entry:
INSERT INTO measurements (compound, quantity_unit, quantitative_result) VALUES
  ('C#Cc1cnc2ccc(-c3cnc(OC)c(NS(=O)(=O)c4ccc(F)cc4F)c3)nn12', 'L/kg', 0.37),
  ('C#Cc1cnc2ccc(-c3cnc(Cl)c(NS(=O)(=O)c4ccc(F)cc4)c3)nn12', 'L/kg', 0.17);

(P) COc1ncc(-c2ccc3ncc(C#CC(C)O)n3n2)cc1NS(=O)(=O)c1ccc(F)cc1F (stereo not shown)
(Q) COc1ncc(-c2ccc3ncc(C#CCO)n3c2)cc1NS(=O)(=O)c1ccc(F)cc1F
Please compare: P and Q . Report which one has the smaller Vd value. Your choice should be expressed through its label.
P

---

run_description: Pharmacokinetic profiles in dogs after intravenous and oral administration
Assay type: in vivo
assay_conditions: plasma; Dog, iv dosing 1 mg/kg
measurement_label: AUC(0-t) (µg·h/mL)

INSERT INTO assay_data (entry_smiles, quantitative_result) VALUES
  ('COc1ncc(-c2ccc3ncc(C#CCO)n3c2)cc1NS(=O)(=O)c1ccc(F)cc1F', 2.17);

(P) COc1ncc(-c2ccc3ncc(C#CCO)n3n2)cc1NS(=O)(=O)c1ccc(F)cc1F
(Q) COc1ncc(-c2ccc3ncc(C#N)n3n2)cc1NS(=O)(=O)c1ccc(F)cc1F
Between P and Q , whose measured AUC(0-t) reads higher? Your choice should be expressed through its label.
P
(P: 2.75 µg·h/mL, Q: 1.84 µg·h/mL)

Reference source: patent US9926324B2
